- System: MDA-MB-231
- Procedure text: Antiproliferative activity against human MDA-MB-231 cells assessed as reduction in cell viability after 48 hrs by MTT assay
- Assay type: functional, cell-based
- Recorded conditions: MDA-MB-231, 48 h
IC50 values by entry
Observable: IC50 (µM)

COc1ccc(/C=C/c2nnc(-c3[nH]nc4c3Cc3cc(OC)ccc3-4)o2)cc1 16.6
C(=C\c1nnc(-c2[nH]nc3c2Cc2ccccc2-3)o1)/c1ccccc1 18.7
COc1cc(/C=C/c2nnc(-c3[nH]nc4c3Cc3cc(F)ccc3-4)o2)cc(OC)c1OC 17.2
COc1ccc(/C=C/c2nnc(-c3[nH]nc4c3Cc3ccccc3-4)o2)cc1OC 26
Nc1ccn([C@@H]2O[C@H](CO)[C@@H](O)C2(F)F)c(=O)n1 8
COc1ccc(/C=C/c2nnc(-c3[nH]nc4c3Cc3cc(F)ccc3-4)o2)cc1OC 17.6
COc1cc2c(cc1OC)-c1n[nH]c(-c3nnc(/C=C/c4cc(OC)c(OC)c(OC)c4)o3)c1C2 13.5
COc1cc(/C=C/c2nnc(-c3[nH]nc4c3Cc3ccccc3-4)o2)cc(OC)c1OC 18.4
Fc1ccc2c(c1)Cc1c-2n[nH]c1-c1nnc(/C=C/c2ccccc2)o1 18
COc1ccc(/C=C/c2nnc(-c3[nH]nc4c3Cc3cc(OC)c(OC)cc3-4)o2)cc1 25
COc1cc2c(cc1OC)-c1n[nH]c(-c3nnc(/C=C/c4ccccc4)o3)c1C2 11.5
O=[N+]([O-])c1ccc(/C=C/c2nnc(-c3[nH]nc4c3Cc3cc(F)ccc3-4)o2)cc1 21.9
COc1ccc2c(c1)Cc1c-2n[nH]c1-c1nnc(/C=C/c2ccccc2)o1 12.8
COc1ccc(/C=C/c2nnc(-c3[nH]nc4c3Cc3ccccc3-4)o2)cc1 13.5
COc1cc2c(cc1OC)-c1n[nH]c(-c3nnc(/C=C/c4ccc([N+](=O)[O-])cc4)o3)c1C2 16.3
COc1ccc(/C=C/c2nnc(-c3[nH]nc4c3Cc3cc(F)ccc3-4)o2)cc1 37.2
O=[N+]([O-])c1ccc(/C=C/c2nnc(-c3[nH]nc4c3Cc3ccccc3-4)o2)cc1 18.5
COc1ccc2c(c1)Cc1c-2n[nH]c1-c1nnc(/C=C/c2ccc([N+](=O)[O-])cc2)o1 21.3
COc1ccc(/C=C/c2nnc(-c3[nH]nc4c3Cc3cc(OC)c(OC)cc3-4)o2)cc1OC 23.2
